Measured IC50, listed per entry for reference.
- System: LFA-1 (CD18/CD11a) binding to ICAM-1 (Homo sapiens, UniProt P05107+P20701)
- Construct: followed by purified LFA-1 (in buffer of 50 mM triethylamine, 150 mM NaCl, 1% beta octylglucoside)
- Sequence (P20701 26-1170): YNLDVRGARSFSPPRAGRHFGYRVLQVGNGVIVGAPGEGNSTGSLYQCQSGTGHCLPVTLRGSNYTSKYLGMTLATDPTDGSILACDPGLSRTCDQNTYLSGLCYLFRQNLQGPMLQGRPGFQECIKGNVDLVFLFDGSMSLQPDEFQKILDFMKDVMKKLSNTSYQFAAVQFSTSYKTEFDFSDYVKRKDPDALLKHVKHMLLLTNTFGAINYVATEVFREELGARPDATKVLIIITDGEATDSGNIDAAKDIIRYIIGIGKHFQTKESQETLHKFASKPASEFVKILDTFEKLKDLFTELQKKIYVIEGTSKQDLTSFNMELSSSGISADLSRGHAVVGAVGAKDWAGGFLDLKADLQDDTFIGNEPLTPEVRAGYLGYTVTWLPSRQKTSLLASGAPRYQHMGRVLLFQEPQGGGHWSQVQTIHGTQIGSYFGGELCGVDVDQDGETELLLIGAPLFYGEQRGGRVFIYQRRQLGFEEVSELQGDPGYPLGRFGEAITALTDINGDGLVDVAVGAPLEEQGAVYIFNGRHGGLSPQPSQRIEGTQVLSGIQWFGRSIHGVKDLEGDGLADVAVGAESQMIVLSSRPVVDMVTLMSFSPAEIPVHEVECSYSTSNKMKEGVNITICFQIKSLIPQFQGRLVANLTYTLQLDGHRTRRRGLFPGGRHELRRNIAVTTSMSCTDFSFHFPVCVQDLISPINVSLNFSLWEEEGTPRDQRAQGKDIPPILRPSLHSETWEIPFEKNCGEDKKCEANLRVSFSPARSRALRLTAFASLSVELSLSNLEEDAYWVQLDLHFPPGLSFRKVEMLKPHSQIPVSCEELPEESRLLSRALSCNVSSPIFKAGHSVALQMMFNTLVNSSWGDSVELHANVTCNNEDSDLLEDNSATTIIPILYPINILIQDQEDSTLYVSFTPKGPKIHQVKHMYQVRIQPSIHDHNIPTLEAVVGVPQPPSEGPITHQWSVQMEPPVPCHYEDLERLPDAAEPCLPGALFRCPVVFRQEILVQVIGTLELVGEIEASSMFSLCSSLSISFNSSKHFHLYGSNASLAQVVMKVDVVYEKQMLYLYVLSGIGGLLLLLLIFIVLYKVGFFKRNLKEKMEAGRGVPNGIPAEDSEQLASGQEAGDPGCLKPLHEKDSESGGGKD
- Sequence (P05107 23-769 partner): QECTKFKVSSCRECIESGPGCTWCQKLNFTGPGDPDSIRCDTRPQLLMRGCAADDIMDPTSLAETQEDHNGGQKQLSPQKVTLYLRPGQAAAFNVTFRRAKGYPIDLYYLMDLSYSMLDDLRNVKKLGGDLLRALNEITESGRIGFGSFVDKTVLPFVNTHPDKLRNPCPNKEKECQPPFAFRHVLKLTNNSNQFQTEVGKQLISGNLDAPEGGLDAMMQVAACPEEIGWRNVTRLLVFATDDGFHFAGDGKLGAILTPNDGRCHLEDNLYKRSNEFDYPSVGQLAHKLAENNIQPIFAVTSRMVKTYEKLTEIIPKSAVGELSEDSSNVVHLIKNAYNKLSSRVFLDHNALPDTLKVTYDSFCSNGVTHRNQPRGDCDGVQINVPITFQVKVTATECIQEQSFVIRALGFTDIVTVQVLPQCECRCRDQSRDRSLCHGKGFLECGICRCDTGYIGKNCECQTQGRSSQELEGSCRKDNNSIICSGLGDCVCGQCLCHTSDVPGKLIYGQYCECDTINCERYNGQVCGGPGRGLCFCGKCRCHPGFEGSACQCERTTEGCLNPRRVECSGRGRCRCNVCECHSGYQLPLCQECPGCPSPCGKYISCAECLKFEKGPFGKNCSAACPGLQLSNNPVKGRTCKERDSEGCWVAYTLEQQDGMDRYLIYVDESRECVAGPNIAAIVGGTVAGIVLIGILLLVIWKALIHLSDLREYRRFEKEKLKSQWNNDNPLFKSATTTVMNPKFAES
- Test Name: LFA-1/Biotin-sICAM-1 AlphaScreen assay: inhibition of LFA-1 binding to ICAM-1
- Condition Set: 37° C. 90 minutes, highest compound concentration 1 μM
- Text: Assay to Determine Inhibition of LFA-1 Binding to ICAM-1 This assay protocol is designed to study the direct antagonism, by a test compound, of the interaction of ICAM-1 with the Leukointegrin CD18/CD11a (LFA-1). […]
Your answer is read as nM, so omit the unit and give the number.

>>> recorded_result("C[C@@]1(Cc2ccc(C#N)cc2)C(=O)N(c2cc(Cl)cc(Cl)c2)c2ncc(C(=O)NC3(C(=O)NC4(c5ccc(-c6cccc(C(N)=O)c6)cn5)CC4)CC3)n21")
1.3
>>> recorded_result("C[C@@]1(Cc2ccc(C#N)cc2)C(=O)N(c2cc(Cl)cc(Cl)c2)c2ncc(C(=O)NC3(C(=O)NC4(c5ccc(-c6cccc(S(N)(=O)=O)c6)cn5)CC4)CC3)n21")
0.64
>>> recorded_result("C[C@@]1(Cc2ccc(C#N)cc2)C(=O)N(c2cc(Cl)c(F)c(Cl)c2)c2ncc(C(=O)NC3(C(=O)NC4(c5ncc(-c6cn[nH]c6)cn5)CC4)CC3)n21")
0.57

In: Give its IC50 value. Item: CC1(Cc2ccc(C#N)cc2)C(=O)N(c2cc(Cl)c(F)c(Cl)c2)c2ncc(C(=O)NC3(C(=O)NC4(c5ccc(-c6cnn(C7CC7)c6)cn5)CC4)CC3)n21 (centres unmarked)
Out: 1.7

In: Give its IC50 value. Item: C[C@@]1(Cc2ccc(C#N)cc2)C(=O)N(c2cc(Cl)c(F)c(Cl)c2)c2ncc(C(=O)NC3(C(=O)NC4(c5ccc(-c6ccncc6)cn5)CC4)CC3)n21
Out: 0.6

* * *

- System: LFA-1 (CD18/CD11a) binding to ICAM-1 (Homo sapiens, UniProt P05107+P20701)
- Construct: followed by purified LFA-1 (in buffer of 50 mM triethylamine, 150 mM NaCl, 1% beta octylglucoside)
- Test Name: LFA-1/Biotin-sICAM-1 AlphaScreen assay: inhibition of LFA-1 binding to ICAM-1
- Condition Set: 37° C. 90 minutes, highest compound concentration 1 μM
Measured Parameter: pIC50
For clarity, pIC50 is expressed as the negative log10 of concentration in mol/L.

In: Give its pIC50 value. Item: C[C@@H](NC(=O)C1(NC(=O)c2cnc3n2[C@](C)(Cc2ccc(C#N)cc2)C(=O)N3c2cc(Cl)c(F)c(Cl)c2)CC1)c1ccc(-c2ccc(CO)nc2)nc1
Out: 9.23

In: Give its pIC50 value. Item: Cc1n[nH]c(C)c1-c1ccc(C2(NC(=O)C3(NC(=O)c4cnc5n4[C@](C)(Cc4ccc(C#N)cc4)C(=O)N5c4cc(Cl)cc(Cl)c4)CC3)CC2)nc1
Out: 9.02

In: Give its pIC50 value. Item: C[C@@]1(Cc2ccc(C#N)cc2)C(=O)N(c2cc(Cl)cc(Cl)c2)c2ncc(C(=O)NC3(C(=O)NC4(c5ccc(-c6ccc(O)cc6)cn5)CC4)CC3)n21
Out: 9.19

In: Give its pIC50 value. Item: C[C@@H](NC(=O)C1(NC(=O)c2cnc3n2[C@](C)(Cc2ccc(C#N)cc2)C(=O)N3c2cc(Cl)c(F)c(Cl)c2)CC1)c1ccc(-c2ccc(CO)nc2)cn1
Out: 9.28

In: Give its pIC50 value. Item: Cn1cc(-c2ccc(C3(NC(=O)C4(NC(=O)c5cnc6n5[C@](C)(Cc5ccc(C#N)cc5)C(=O)N6c5cc(Cl)c(F)c(Cl)c5)CC4)CC3)nn2)c(C2CC2)n1
Out: 8.80

In: Give its pIC50 value. Item: Cc1ccc(-c2ccc(C3(NC(=O)C4(NC(=O)c5cnc6n5[C@](C)(Cc5ccc(C#N)cc5)C(=O)N6c5cc(Cl)c(F)c(Cl)c5)CC4)CC3)nc2)cn1
Out: 8.85

In: Give its pIC50 value. Item: C[C@@]1(Cc2ccc(C#N)cc2)C(=O)N(c2cc(Cl)c(F)c(Cl)c2)c2ncc(C(=O)NC3(C(=O)NC4(c5ccc(-c6cccc(S(N)(=O)=O)c6)cn5)CC4)CC3)n21
Out: 8.74

In: Give its pIC50 value. Item: Cc1ccc(-c2cnc(C3(NC(=O)C4(NC(=O)c5cnc6n5[C@](C)(Cc5ccc(C#N)cc5)C(=O)N6c5cc(Cl)c(F)c(Cl)c5)CC4)CC3)nc2)cn1
Out: 9.27

In: Give its pIC50 value. Item: C[C@@]1(Cc2ccc(OC(F)(F)F)cc2)C(=O)N(c2cc(Cl)c(F)c(Cl)c2)c2ncc(C(=O)NC3(C(=O)NC4(c5ccc(-c6ccc(N)nc6)cn5)CC4)CC3)n21
Out: 8.82

In: Give its pIC50 value. Item: Cn1cc(-c2ccc(C3(NC(=O)C4(NC(=O)c5cnc6n5[C@](C)(Cc5ccc(C#N)cc5)C(=O)N6c5cc(Cl)c(F)c(Cl)c5)CC4)CC3)nn2)cn1
Out: 9.32

In: Give its pIC50 value. Item: Cc1nn(C)cc1-c1ccc(C2(NC(=O)[C@H](CO)NC(=O)c3cnc4n3[C@](C)(Cc3ccc(C#N)cc3)C(=O)N4c3cc(Cl)c(F)c(Cl)c3)CC2)nc1
Out: 9.12

In: Give its pIC50 value. Item: CC1(Cc2ccc(C#N)cc2)C(=O)N(c2cc(Cl)cc(Cl)c2)c2ncc(C(=O)NC3(C(=O)NC4(c5ccc(-c6cnoc6)cn5)CC4)CC3)n21 (centres unmarked)
Out: 9.47
